Experiment: self-splicing fitness, log relative to wild type (ln ratio); higher = more splicing; Tetrahymena group I intron in knt gene, E. coli kanamycin selection, DiMSum; sequences stand for … in CUCUCU…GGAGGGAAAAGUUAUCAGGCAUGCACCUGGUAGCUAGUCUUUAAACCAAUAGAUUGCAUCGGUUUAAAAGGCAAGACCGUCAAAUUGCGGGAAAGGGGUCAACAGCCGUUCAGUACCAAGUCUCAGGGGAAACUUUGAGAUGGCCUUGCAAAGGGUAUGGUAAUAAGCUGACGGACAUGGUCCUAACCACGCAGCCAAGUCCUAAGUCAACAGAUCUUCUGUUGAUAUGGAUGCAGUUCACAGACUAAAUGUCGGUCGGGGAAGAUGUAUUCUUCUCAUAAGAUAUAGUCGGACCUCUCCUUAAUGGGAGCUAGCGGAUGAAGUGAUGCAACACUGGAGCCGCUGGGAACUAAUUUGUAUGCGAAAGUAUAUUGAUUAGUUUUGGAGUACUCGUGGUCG;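 further: selection with 25 µg/mL kanamycin versus none on LB agar overnight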
Settings: 30 °C
MEASUREMENT_LABEL: self-splicing fitness (ln)

# annotated cases, reported self-splicing fitness (ln) shown
{"SEQUENCE": "CUGCAGCAAUAUUACGGAGA", "self-splicing fitness (ln)": -3.35}
{"SEQUENCE": "AUGGAGCAAUAUUACGCGUG", "self-splicing fitness (ln)": -3.24}
{"SEQUENCE": "CCCUAGCAAUAUUACGGUUC", "self-splicing fitness (ln)": -3.92}

# input # get_value(readout='self-splicing fitness (ln)', item= GUCCAGCAAUAUUACGACAC )
# output 1.02

# input Let us now turn to UCACAGCAAUAUUACGAUUA
# output -1.43

# input Now consider CUAGAGCAAUAUUACGUGAC and answer again.
# output -1.08

# input Would you kindly repeat that for CAGCAGCAAUAUUACGGCAA ?
# output -1.35

# input Next sequence up: CGAUAGCAAUAUUACGGGGC
# output -3.2

# input Request: AUUAAGCAAUAUUACGUCAG
# output -3.01

# input Now try CCAAAGCAAUAUUACGGUAC .
# output -3.5

# input Field entry: CAUGAGCAAUAUUACGGAAA
# output -3.26

====

# self-splicing fitness (ln) annotations
Assay: self-splicing fitness, log relative to wild type (ln ratio); higher = more splicing; Tetrahymena group I intron in knt gene, E. coli kanamycin selection, DiMSum; sequences stand for … in CUCUCU…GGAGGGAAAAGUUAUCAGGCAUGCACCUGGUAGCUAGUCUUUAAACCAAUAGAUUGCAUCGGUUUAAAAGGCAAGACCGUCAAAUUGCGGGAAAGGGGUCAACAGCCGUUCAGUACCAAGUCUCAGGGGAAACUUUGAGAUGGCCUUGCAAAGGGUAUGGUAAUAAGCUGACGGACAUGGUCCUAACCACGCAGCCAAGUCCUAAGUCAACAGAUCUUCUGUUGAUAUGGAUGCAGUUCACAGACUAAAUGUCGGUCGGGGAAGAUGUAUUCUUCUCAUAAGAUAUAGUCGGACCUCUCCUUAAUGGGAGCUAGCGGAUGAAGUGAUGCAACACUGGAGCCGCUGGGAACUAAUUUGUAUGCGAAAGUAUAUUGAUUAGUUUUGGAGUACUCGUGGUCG
Settings: 30 °C
// no unit string in output, number only

Example entries and their recorded answers appear below.
{"SEQUENCE": "UUGUAGCAAUAUUACGGGGA", "MEASUREMENT_LABEL": "self-splicing fitness (ln)", "READOUT_VALUE": -1.98}
{"SEQUENCE": "AGACAGCAAUAUUACGUUGG", "MEASUREMENT_LABEL": "self-splicing fitness (ln)", "READOUT_VALUE": -1.95}

Alright, here's another sequence for you.
# input Record request: self-splicing fitness (ln) value, item GGGGAGCAAUAUUACGAUUG
# output -2.02

====

Assay: self-splicing fitness, log relative to wild type (ln ratio); higher = more splicing; Tetrahymena group I intron in knt gene, E. coli kanamycin selection, DiMSum; sequences stand for … in CUCUCU…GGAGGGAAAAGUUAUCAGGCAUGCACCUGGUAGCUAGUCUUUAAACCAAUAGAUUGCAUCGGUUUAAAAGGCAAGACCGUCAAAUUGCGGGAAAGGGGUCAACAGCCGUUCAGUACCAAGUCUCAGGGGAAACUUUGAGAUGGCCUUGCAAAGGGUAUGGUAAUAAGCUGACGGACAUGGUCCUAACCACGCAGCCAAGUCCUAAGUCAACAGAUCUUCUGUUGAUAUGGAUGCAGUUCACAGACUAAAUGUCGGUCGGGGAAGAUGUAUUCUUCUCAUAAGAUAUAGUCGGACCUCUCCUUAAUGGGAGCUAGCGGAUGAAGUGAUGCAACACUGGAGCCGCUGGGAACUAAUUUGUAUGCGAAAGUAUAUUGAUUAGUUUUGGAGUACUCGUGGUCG
Settings: 30 °C
Consider the following sequences and their measured self-splicing fitness (ln) readings.
// return just the number, without any unit appended

{"SEQUENCE": "CACGAGCAAUAUUACGCUAA", "self-splicing fitness (ln)": -2.95}
{"SEQUENCE": "ACCUAGCAAUAUUACGCGAA", "self-splicing fitness (ln)": -3.01}
{"SEQUENCE": "UACAAGCAAUAUUACGUUAG", "self-splicing fitness (ln)": -3.02}

Next sequence, self-splicing fitness (ln) to be filled in.
# input Sample AUGGAGCAAUAUUACGGCUU — what was its self-splicing fitness (ln)?
# output -2.98

====

Test: self-splicing fitness, log relative to wild type (ln ratio); higher = more splicing; Tetrahymena group I intron in knt gene, E. coli kanamycin selection, DiMSum; sequences stand for … in CUCUCU…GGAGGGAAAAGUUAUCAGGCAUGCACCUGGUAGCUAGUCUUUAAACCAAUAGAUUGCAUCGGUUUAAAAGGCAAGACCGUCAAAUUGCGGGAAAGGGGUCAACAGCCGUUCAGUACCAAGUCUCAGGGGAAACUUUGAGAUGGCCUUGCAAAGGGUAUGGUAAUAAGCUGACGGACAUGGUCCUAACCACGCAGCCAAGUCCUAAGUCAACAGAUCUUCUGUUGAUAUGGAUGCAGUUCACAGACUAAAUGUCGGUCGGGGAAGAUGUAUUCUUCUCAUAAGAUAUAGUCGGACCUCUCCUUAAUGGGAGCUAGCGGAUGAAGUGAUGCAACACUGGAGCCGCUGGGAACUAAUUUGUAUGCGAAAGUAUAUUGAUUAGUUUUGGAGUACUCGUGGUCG
Conditions: 30 °C
Catalogue of sequences with associated self-splicing fitness (ln)
Lab note: record the figure alone, no unit after it.

{"SEQUENCE": "UCAUAGCAAUAUUACGUUUG", "self-splicing fitness (ln)": -3.04}
{"SEQUENCE": "UGACAGCAAUAUUACGGUUC", "self-splicing fitness (ln)": -2.92}
{"SEQUENCE": "AUAAAGCAAUAUUACGACCA", "self-splicing fitness (ln)": -0.122}

# input Quick check: self-splicing fitness (ln) of AUGGAGCAAUAUUACGCUAU ?
# output -3.89

# input Do the same for UAUAAGCAAUAUUACGGUCG please
# output -0.167

# input Query UACUAGCAAUAUUACGGACU next
# output -0.895

# input Try this sequence too: ACGGAGCAAUAUUACGCUUU
# output -4.74

# input What about this sequence? UCGAAGCAAUAUUACGUCGG
# output -2.65

====

Readings of self-splicing fitness (ln) for the listed sequences
Test: self-splicing fitness, log relative to wild type (ln ratio); higher = more splicing; Tetrahymena group I intron in knt gene, E. coli kanamycin selection, DiMSum; sequences stand for … in CUCUCU…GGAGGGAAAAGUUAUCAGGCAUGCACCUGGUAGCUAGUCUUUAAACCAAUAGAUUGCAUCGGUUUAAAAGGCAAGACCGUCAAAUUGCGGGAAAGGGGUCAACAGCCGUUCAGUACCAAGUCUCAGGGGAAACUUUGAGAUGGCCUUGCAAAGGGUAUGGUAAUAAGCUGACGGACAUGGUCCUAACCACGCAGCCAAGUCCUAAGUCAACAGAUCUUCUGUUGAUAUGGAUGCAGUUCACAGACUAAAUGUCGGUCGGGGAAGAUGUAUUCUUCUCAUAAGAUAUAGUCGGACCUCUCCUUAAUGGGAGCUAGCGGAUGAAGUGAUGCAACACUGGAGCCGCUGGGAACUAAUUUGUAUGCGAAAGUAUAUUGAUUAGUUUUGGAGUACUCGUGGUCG
Details: 30 °C
# answer = number (no unit)

# input # lookup: self-splicing fitness (ln) of AUUCAGCAAUAUUACGACGC
# output -0.246

# input Also CAGUAGCAAUAUUACGAGAU ?
# output -4.27

# input Would you kindly repeat that for CGGUAGCAAUAUUACGUAUG ?
# output -0.225

# input Okay, and UCGCAGCAAUAUUACGGGCU ?
# output -3.71

# input Lookup GGGAAGCAAUAUUACGCCUU
# output -1.8

# input Do the same for GGCGAGCAAUAUUACGGAAC please
# output -1.91

# input Now the sequence AACAAGCAAUAUUACGAAAG
# output -2.14

# input For GUUAAGCAAUAUUACGCGAA then?
# output -2.09

# input Moving on to the next sequence: UGUGAGCAAUAUUACGAACG
# output -0.83

# input CGAAAGCAAUAUUACGGGCG , same question.
# output -0.207

# input Same lookup for UAUGAGCAAUAUUACGAGUG , please.
# output -1.52

# input Also CGGAAGCAAUAUUACGAGCU , if possible.
# output -2.93

# input Note, next up: GCAGAGCAAUAUUACGUUAA
# output -1.87

# input // same read-out, input: CUCAAGCAAUAUUACGGACA
# output -2.5
